# targetOfAssay: SFRP-1 (Homo sapiens)
# Sequence (Q8N474 32-314): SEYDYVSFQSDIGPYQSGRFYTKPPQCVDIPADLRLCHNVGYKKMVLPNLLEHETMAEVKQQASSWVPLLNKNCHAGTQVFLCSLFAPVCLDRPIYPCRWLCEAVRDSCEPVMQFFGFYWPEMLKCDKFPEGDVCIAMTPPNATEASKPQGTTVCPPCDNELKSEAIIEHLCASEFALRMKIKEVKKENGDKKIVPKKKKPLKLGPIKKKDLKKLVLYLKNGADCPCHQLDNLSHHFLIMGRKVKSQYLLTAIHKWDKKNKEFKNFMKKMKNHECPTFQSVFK
# protocolDetails: Cell-based assay for in vitro measurement of SFRP-1/SARP2 antagonist activity (U2OS cells co-transfected with 16x TCF-tk-Luciferase reporter, Wnt and hSFRP-1);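 note: U2OS cells co-transfected with a TCF-tk luciferase reporter, a Wnt vector, hSFRP-1 or empty vector and CMV-βgal, luciferase luminescence read in cell lysates alongside βgal activity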
pEC50: −log10 of the molar value.
recordedEndpoint: pEC50

# compound, targetOfAssay, pEC50
rows = [
    ("CNC(=O)CN1CCC(NS(=O)(=O)c2cc(S(=O)(=O)c3ccccc3)ccc2C(F)(F)F)CC1", "SFRP-1 (Homo sapiens)", 6.44),
    ("CSCCC(=O)N1CCC(NS(=O)(=O)c2cc(S(=O)(=O)c3ccccc3)ccc2C(F)(F)F)CC1", "SFRP-1 (Homo sapiens)", 6.72),
    ("CCCc1ccc(S(=O)(=O)c2ccccc2)cc1S(=O)(=O)NC1CCNCC1", "SFRP-1 (Homo sapiens)", 5.67),
    ("CN(CCNS(=O)(=O)c1cc(S(=O)(=O)c2ccccc2)ccc1C(F)(F)F)C(=O)N(C)c1ccccc1", "SFRP-1 (Homo sapiens)", 5.70),
    ("O=C(c1cc(F)cc(F)c1)N1CCC(NS(=O)(=O)c2cc(S(=O)(=O)c3ccccc3)ccc2C(F)(F)F)CC1", "SFRP-1 (Homo sapiens)", 6.30),
]

[a] CC(C)c1ccc(S(=O)(=O)c2ccccc2)cc1S(=O)(=O)NCc1ccncc1
[b] CCCCNC(=S)N1CCC(NS(=O)(=O)c2cc(S(=O)(=O)c3ccc(F)cc3)ccc2C(C)C)CC1
Problem: Quick one: lower pEC50, a or b ? Reply with the label of the item you choose.
Result: b
(b: 5.06, a: 5.74)

[I] O=C(O)c1cccc(S(=O)(=O)Nc2ccc(CNS(=O)(=O)c3cc(S(=O)(=O)c4ccccc4)ccc3C(F)(F)F)cc2)c1
[II] CN(CCNS(=O)(=O)c1cc(S(=O)(=O)c2ccccc2)ccc1C(F)(F)F)C(=O)c1cccnc1
[III] CC(C)(C)c1ccc(C(=O)N2CCC(NS(=O)(=O)c3cc(S(=O)(=O)c4ccccc4)ccc3C(F)(F)F)CC2)cc1
[IV] NC(=O)COc1ccc2c(c1)CC(NS(=O)(=O)c1cc(S(=O)(=O)c3ccccc3)ccc1C(F)(F)F)C2 (centres unmarked)
[V] CC(C)(C)OC(=O)N1CCC(CNS(=O)(=O)c2cc(S(=O)(=O)c3ccccc3)ccc2C(F)(F)F)CC1
Problem: Hello, I need these entries ordered by pEC50, highest reading first. Thanks! List the labels according to the requested ordering.
Result: IV, III, V, I, II

[I] CN(CCNS(=O)(=O)c1cc(S(=O)(=O)c2ccccc2)ccc1C(F)(F)F)C(=O)N[C@@H]1CCNC1
[II] CN(CCNS(=O)(=O)c1cc(S(=O)(=O)c2ccccc2)ccc1C(F)(F)F)C(=O)Nc1ccc(F)cc1F
Problem: Quick one: lower pEC50, I or II ? Reply with the label of the item you choose.
Result: II

[I] CN(CCNS(=O)(=O)c1cc(S(=O)(=O)c2ccccc2)ccc1C(F)(F)F)C(=O)N[C@@H]1CCCNC1
[II] Cc1cc(C)c(S(=O)(=O)c2ccccc2)cc1S(=O)(=O)NC1CCNCC1
Problem: Quick one: lower pEC50, I or II ? Reply with the label of the item you choose.
Result: II
(II: 5.73, I: 6.14)
